# targetOfAssay: AaegRdl1-1 (Rdl, resistance to dieldrin GABA receptor) (Aedes aegypti, UniProt Q16896)
# Construct: AaegRdl1-1 clone expressed in Xenopus oocytes
# Sequence (Q16896 entry or part of it): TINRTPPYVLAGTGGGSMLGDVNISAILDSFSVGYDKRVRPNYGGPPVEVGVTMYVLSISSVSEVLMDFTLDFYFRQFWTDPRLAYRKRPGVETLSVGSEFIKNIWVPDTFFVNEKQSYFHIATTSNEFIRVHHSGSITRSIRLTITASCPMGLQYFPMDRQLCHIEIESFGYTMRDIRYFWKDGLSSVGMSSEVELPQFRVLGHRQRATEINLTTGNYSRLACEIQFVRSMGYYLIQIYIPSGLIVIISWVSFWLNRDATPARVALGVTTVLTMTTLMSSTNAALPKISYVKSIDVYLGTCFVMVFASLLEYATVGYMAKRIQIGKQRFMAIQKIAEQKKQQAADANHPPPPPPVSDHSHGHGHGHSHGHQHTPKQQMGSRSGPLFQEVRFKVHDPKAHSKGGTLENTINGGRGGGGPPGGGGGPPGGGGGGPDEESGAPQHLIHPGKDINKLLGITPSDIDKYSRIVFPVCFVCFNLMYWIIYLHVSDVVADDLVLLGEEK
# protocolSummary: two-electrode voltage clamp in Xenopus oocytes; potentiation of […] GABA current
# Assay type: cell-based
measure: EC50 (µM)
Express your answer in µM, writing the number without its unit.

Field EC50 (entry C=C(C)[C@H]1CC=C(C)CC1 ) reads 43.3
